# Organism: Rattus norvegicus
# ASSAY NAME: Open TG-GATES - Regimen: Single
# Assay type: toxicity, organism-based, Sprague-Dawley
# Design: regimen Single, gender Male, age 6 weeks
# CONDITION PARAMETERS: in vivo, po, 0 mg/kg, 6 h, tissue Blood, route gavage, dose level Control
Reported APTT is given for each of the following compounds.
ENDPOINT: APTT (s)

| COMPOUND | ENDPOINT | UNIT LABEL | MEASURED |
| --- | --- | --- | --- |
| CCN(CC)C(=S)SSC(=S)N(CC)CC | APTT | s | 21.8 |
| O=C(O)c1ccccc1Nc1ccccc1 | APTT | s | 18.5 |
| COc1ccc([C@@H]2Sc3ccccc3N(CCN(C)C)C(=O)[C@@H]2OC(C)=O)cc1 | APTT | s | 18.2 |
| CN(C/C=C/C#CC(C)(C)C)Cc1cccc2ccccc12 | APTT | s | 19 |
| CCCCNC(=O)NS(=O)(=O)c1ccc(C)cc1 [TOLBUTAMIDE] | APTT | s | 18.7 |
